Source: patent US20250011363A1

Target: acetylcholine receptor
Test: SPR, receptor on CM5 chip, peptide 10 µM
readout.type: Binding affinity (RU)

{"columns": ["binder", "readout.type", "assay.result"],
 "data": [
  ["RRGVQK [6mer-1-123]", "Binding affinity (RU)", 148],
  ["KRLFCK [6mer-1-79]", "Binding affinity (RU)", 137],
  ["KRVLYK [6mer-1-501]", "Binding affinity (RU)", 154],
  ["KRRQLR [6mer-1-497]", "Binding affinity (RU)", 133]
]}
